test: Cmax in monkey at 5 mg/kg, po; type: ADME, organism-based, Macaca mulatta; parameters: dose 5 mg/kg, route oral; conditions: rhesus monkey, in vivo
READOUT_LABEL: Cmax (nM)
Dear colleague, please return just the value in nM, with no unit written.

# input Which Cmax value is on record for C=C[C@@H]1C[C@]1(NC(=O)[C@@H]1C[C@@H](Oc2cc(-c3csc(NC(=O)C(C)C)n3)nc3c(Br)c(OC)ccc23)CN1C(=O)[C@@H](NC(=O)OC1CCCC1)C(C)(C)C)C(=O)O ?
# output 2000

---

Biological target: Neutrophil elastase (Homo sapiens, UniProt P08246)
Sequence (P08246 whole entry): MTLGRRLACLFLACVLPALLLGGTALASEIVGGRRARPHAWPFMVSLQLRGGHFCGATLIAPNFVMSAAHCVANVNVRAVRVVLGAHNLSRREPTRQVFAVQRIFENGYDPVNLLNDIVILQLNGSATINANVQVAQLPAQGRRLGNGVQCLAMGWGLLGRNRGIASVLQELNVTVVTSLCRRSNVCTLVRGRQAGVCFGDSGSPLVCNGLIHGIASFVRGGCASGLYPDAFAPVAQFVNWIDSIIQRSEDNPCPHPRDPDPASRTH
Assay: Inhibition of human leukocyte elastase after 60 mins fluorescence assay
READOUT_LABEL: pIC50
Expect pIC50 as a plain number equal to -log10 of the molar concentration.

# input Which pIC50 value is on record for CCC[C@H](NC(=O)[C@@H]1[C@H]2CCC[C@H]2CN1C(=O)[C@@H](NC(=O)[C@@H](NC(=O)c1cnccn1)C1CCCCC1)C(C)(C)C)C(=O)C(=O)NC1CC1 ?
# output 6.17

# input Which pIC50 value is on record for CC(C)(C)NC(=O)N[C@H](C(=O)N1C[C@H]2[C@@H]([C@H]1C(=O)NC(CC1CCC1)C(=O)C(N)=O)C2(C)C)C(C)(C)C (some centres not stated) [BOCEPREVIR] ?
# output 4.77

---

assay: AUC in dog at 5 mg/kg, po; format: ADME, organism-based, Canis lupus familiaris; parameters: dose 5 mg/kg, route oral; conditions: plasma
READOUT_LABEL: AUC (µM·h)
Dear colleague, please return just the value in µM·h, with no unit written.

# input Which AUC value is on record for C=C[C@@H]1C[C@]1(NC(=O)[C@@H]1C[C@@H](Oc2cc(-c3csc(NC(=O)C(C)C)n3)nc3c(Br)c(OC)ccc23)CN1C(=O)[C@@H](NC(=O)OC1CCCC1)C(C)(C)C)C(=O)O ?
# output 13

---

assay: Mean retention time in Sprague-Dawley rat at 5 mg/kg, po; format: ADME, organism-based, Sparague-Dawley; parameters: dose 5 mg/kg, route oral; details: in vivo
READOUT_LABEL: MRT (h)
Dear colleague, please return just the value in h, with no unit written.

# input Which MRT value is on record for C=C[C@@H]1C[C@]1(NC(=O)[C@@H]1C[C@@H](Oc2cc(-c3csc(NC(=O)C(C)C)n3)nc3c(Br)c(OC)ccc23)CN1C(=O)[C@@H](NC(=O)OC1CCCC1)C(C)(C)C)C(=O)O ?
# output 3.18

---

experiment: AUC (0 to infinity) in monkey at 5 mg/kg, po; type: ADME, organism-based, Macaca mulatta; parameters: time infinity, dose 5 mg/kg, route oral; conditions: rhesus monkey, plasma
READOUT_LABEL: AUC(0-inf)

# input Which AUC(0-inf) value is on record for C=C[C@@H]1C[C@]1(NC(=O)[C@@H]1C[C@@H](Oc2cc(-c3csc(NC(=O)C(C)C)n3)nc3c(Br)c(OC)ccc23)CN1C(=O)[C@@H](NC(=O)OC1CCCC1)C(C)(C)C)C(=O)O ?
# output 8.3 µM·h

---

test: AUC (0 to infinity) in rat at 5 mg/kg, po; type: ADME, organism-based; parameters: time infinity, dose 5 mg/kg, route oral; details: plasma
READOUT_LABEL: AUC(0-inf) (nM·h)
Dear colleague, please return just the value in nM·h, with no unit written.

# input Which AUC(0-inf) value is on record for C=C[C@@H]1C[C@]1(NC(=O)[C@@H]1C[C@@H](Oc2cc(-c3csc(NC(=O)C(C)C)n3)nc3c(Br)c(OC)ccc23)CN1C(=O)[C@@H](NC(=O)OC1CCCC1)C(C)(C)C)C(=O)O ?
# output 1630

---

experiment: Inhibition of HCV 2a NS3/4A protease; parameters: species or system Hepatitis C virus subtype 2a; settings: read-out: Ki(app)
Here, each record is paired with measured Ki data.
Dear colleague, please return just the value in µM, with no unit written.

CCC[C@H](NC(=O)[C@@H]1[C@H]2CCC[C@H]2CN1C(=O)[C@@H](NC(=O)[C@@H](NC(=O)c1cnccn1)C1CCCCC1)C(C)(C)C)C(=O)C(=O)NC1CC1    0.015

Field: next compound
# input Which Ki value is on record for CC(C)(C)NC(=O)N[C@H](C(=O)N1C[C@H]2[C@@H]([C@H]1C(=O)NC(CC1CCC1)C(=O)C(N)=O)C2(C)C)C(C)(C)C (some centres not stated) ?
# output 0.0073

---

Here, each record is paired with measured Papp B→A data.
assay: Apparent permeability from basolateral to apical side in human Caco2 cells; format: ADME, cell-based; details: Caco-2, read-out: permeability

CCC[C@H](NC(=O)[C@@H]1[C@H]2CCC[C@H]2CN1C(=O)[C@@H](NC(=O)[C@@H](NC(=O)c1cnccn1)C1CCCCC1)C(C)(C)C)C(=O)C(=O)NC1CC1    23 ×10⁻⁶ cm/s

Field: next compound
# input Which Papp B→A value is on record for CC(C)(C)NC(=O)N[C@H](C(=O)N1C[C@H]2[C@@H]([C@H]1C(=O)NC(CC1CCC1)C(=O)C(N)=O)C2(C)C)C(C)(C)C (some centres not stated) [BOCEPREVIR] ?
# output 23 ×10⁻⁶ cm/s

---

assay: Cmax in dog at 5 mg/kg, po; format: ADME, organism-based, Canis lupus familiaris; set-up: dose 5 mg/kg, route oral; conditions: in vivo
READOUT_LABEL: Cmax (µM)
Dear colleague, please return just the value in µM, with no unit written.

# input Which Cmax value is on record for C=C[C@@H]1C[C@]1(NC(=O)[C@@H]1C[C@@H](Oc2cc(-c3csc(NC(=O)C(C)C)n3)nc3c(Br)c(OC)ccc23)CN1C(=O)[C@@H](NC(=O)OC1CCCC1)C(C)(C)C)C(=O)O ?
# output 3.8

---

test: Tmax in dog at 5 mg/kg, po; type: ADME, organism-based, Canis lupus familiaris; set-up: dose 5 mg/kg, route oral; conditions: in vivo
READOUT_LABEL: Tmax (min)
Dear colleague, please return just the value in min, with no unit written.

# input Which Tmax value is on record for C=C[C@@H]1C[C@]1(NC(=O)[C@@H]1C[C@@H](Oc2cc(-c3csc(NC(=O)C(C)C)n3)nc3c(Br)c(OC)ccc23)CN1C(=O)[C@@H](NC(=O)OC1CCCC1)C(C)(C)C)C(=O)O ?
# output 49.8

---

test: Tmax in monkey at 5 mg/kg, po; type: ADME, organism-based, Macaca mulatta; set-up: dose 5 mg/kg, route oral; settings: rhesus monkey, in vivo
READOUT_LABEL: Tmax (h)
Dear colleague, please return just the value in h, with no unit written.

# input Which Tmax value is on record for C=C[C@@H]1C[C@]1(NC(=O)[C@@H]1C[C@@H](Oc2cc(-c3csc(NC(=O)C(C)C)n3)nc3c(Br)c(OC)ccc23)CN1C(=O)[C@@H](NC(=O)OC1CCCC1)C(C)(C)C)C(=O)O ?
# output 2

---

Here, each record is paired with measured Ki data.
test: Inhibition of HCV 4a NS3/4A protease; parameters: species or system Hepatitis C virus subtype 4a; settings: read-out: Ki(app)
Dear colleague, please return just the value in nM, with no unit written.

CCC[C@H](NC(=O)[C@@H]1[C@H]2CCC[C@H]2CN1C(=O)[C@@H](NC(=O)[C@@H](NC(=O)c1cnccn1)C1CCCCC1)C(C)(C)C)C(=O)C(=O)NC1CC1    50

Field: next compound
# input Which Ki value is on record for CC(C)(C)NC(=O)N[C@H](C(=O)N1C[C@H]2[C@@H]([C@H]1C(=O)NC(CC1CCC1)C(=O)C(N)=O)C2(C)C)C(C)(C)C (some centres not stated) [BOCEPREVIR] ?
# output 8.6
